The reported measurements were obtained from paper PMC12627862.

Test: Lipophilicity of peptides, logP(oct/wat)
Assay type: physicochemical
Starred links: 1 amine or outer side, 2 acyl side, 3 side chain; linkers in the order of their positions; H or OH if unused. Positions of bridges follow the written chain, without caps; N, C: chain ends. Non-standard residues stand in square brackets, D forms with d. Residues, ends and D or L forms follow the SMILES beside them. ξ: configuration not given here. X5 = O=C([C@@H]1[C@@H]2CCCC[C@@H]2CN1[*:1])[*:2]; X2 = C[C@@](CCCCC=[*:3])(N[*:1])C(=O)[*:2]; Leu(4,5-dehydro) = C=C(C)C[C@H](N)C(=O)O; Oic = O=C(O)[C@@H]1C[C@@H]2CCCC[C@@H]2N1; d(tBuAla) = CC(C)(C)C[C@@H](N)C(=O)O; dVal(3-OH) = CC(C)(O)[C@@H](N)C(=O)O; tBuAla = CC(C)(C)C[C@H](N)C(=O)O; R5 = C=CCCC[C@@](C)(N)C(=O)O; X1 = O=C(CC(O)CN[*:1])[*:2]; 4Amb = NCc1ccc(C(=O)O)cc1; ξP = O=C(O)C1CCCN1
Param label: returns label 1 when logD < -0.04, returns label 0 otherwise, including exact equality.

A record lists CC[C@H](C)[C@@H]1NC(=O)[C@H]([C@@H](C)O)NC(=O)[C@@H]2CCCN2C(=O)[C@H]([C@@H](C)CC)NC(=O)[C@H](CCC(=O)O)NC(=O)[C@H]([C@@H](C)O)NC(=O)[C@H](Cc2ccccc2)NC(=O)CNC(=O)CNC(=O)[C@H]([C@@H](C)O)NC(=O)CC[C@@H](C(=O)O)NC(=O)[C@@H]2CCCN2C(=O)[C@H](CC(C)C)NC1=O [compound 013] (TGGFTEIPTILPE-OH; lactam N-13) . Is its logD below -0.04?
label 1

A record lists CC[C@H](C)[C@H](NC(=O)[C@H](NC(=O)[C@@H]1[C@@H]2CCCC[C@@H]2CN1C(=O)[C@H](CC(C)(C)C)NC(=O)[C@H](CCC(=O)O)NC(=O)[C@H](NC(=O)[C@@H](N)Cc1ccccc1)C(C)(C)O)C(C)(C)O)C(=O)O [compound 040] (H-F[dVal(3-OH)]E[tBuAla][X5][dVal(3-OH)]I-OH) . Is its logD below -0.04?
label 0

A record lists CC(C)(C)C[C@H](NC(=O)CC(O)CNC(=O)[C@@H]1C[C@@H]2CCCC[C@@H]2N1C(=O)[C@H](CC(C)(C)C)NC(=O)c1ccc(CNC(=O)[C@H](NC(=O)[C@H](N)Cc2ccccc2)C(C)(C)O)cc1)C(=O)O (stereo partly shown) [compound 101] (H-[dF][dVal(3-OH)][4Amb][tBuAla][Oic][X1][tBuAla]-OH) . Is its logD below -0.04?
label 0

A record lists CC[C@@H](C)[C@H]1NC(=O)[C@H]([C@@H](C)O)NC(=O)C2CCCN2C(=O)[C@@H](CC(C)(C)C)NC(=O)[C@](C)(NC(=O)[C@@H](CCC(=O)O)NC(=O)[C@H](NC(=O)[C@H](N)Cc2ccccc2)[C@H](C)O)CCC/C=C\CCCC[C@@](C)(C(=O)N[C@@H](CCCNC(=N)N)C(=O)O)NC1=O (stereo partly shown) [compound 028] (H-[dF][dT][dE][R5][d(tBuAla)][ξP]T[dI][X2]R-OH; staple (Z) 4-9) . Is its logD below -0.04?
label 1

A record lists C=C(C)C[C@H](NC(=O)[C@H](CCC(=O)O)NC(=O)[C@@H](NC(=O)[C@@H](N)Cc1ccccc1)[C@@H](C)O)C(=O)N1CCC[C@H]1C(=O)N[C@H](C(=O)N[C@H](C(=O)O)[C@@H](C)CC)[C@@H](C)O [compound 019] (H-FTE[Leu(4,5-dehydro)]PTI-OH) . Is its logD below -0.04?
label 1

A record lists CC(C)(C)C[C@H](NC(=O)CC(O)CNC(=O)[C@@H]1C[C@@H]2CCCC[C@@H]2N1C(=O)[C@H](CC(C)(C)C)NC(=O)c1ccc(CNC(=O)[C@H](N)C(C)(C)O)cc1)C(=O)O (stereo partly shown) [compound 103] (H-[dVal(3-OH)][4Amb][tBuAla][Oic][X1][tBuAla]-OH) . Is its logD below -0.04?
label 0

* * *

Assay: Stability of selected EB3 inhibitors in human blood plasma
Format: in vitro ADME
Settings: human, plasma
Starred links: 1 amine or outer side, 2 acyl side, 3 side chain; linkers in the order of their positions; H or OH if unused. Non-standard residues stand in square brackets, D forms with d. Residues, ends and D or L forms follow the SMILES beside them. ξ: configuration not given here. *: point of attachment. Oic = O=C(O)[C@@H]1C[C@@H]2CCCC[C@@H]2N1; GABOB(3R) = O=C(C[C@@H](O)CN[*:1])[*:2]; dVal(3-OH) = CC(C)(O)[C@@H](N)C(=O)O; tBuAla = CC(C)(C)C[C@H](N)C(=O)O; Myristoyl = CCCCCCCCCCCCCC(=O)*; ξVal(3-OH) = CC(C)(O)C(N)C(=O)O; X1 = O=C(CC(O)CN[*:1])[*:2]; 4Amb = NCc1ccc(C(=O)O)cc1
observation_type: remaining at 20 h (%)
Please state the figure in %; there is no need to write the unit.

Specify measured remaining at 20 h for CC(C)(C)C[C@H](NC(=O)CC(O)CNC(=O)[C@@H]1C[C@@H]2CCCC[C@@H]2N1C(=O)[C@H](CC(C)(C)C)NC(=O)c1ccc(CNC(=O)[C@H](NC(=O)[C@H](N)Cc2ccccc2)C(C)(C)O)cc1)C(=O)O (stereo partly drawn) [compound 101] (H-[dF][dVal(3-OH)][4Amb][tBuAla][Oic][X1][tBuAla]-OH) .
85

Specify measured remaining at 20 h for CCCCCCCCCCCCCC(=O)N[C@@H](Cc1ccccc1)C(=O)N[C@H](C(=O)N[C@@H](CCC(=O)O)C(=O)N[C@H](C(=O)N1CCC[C@H]1C(=O)N[C@H](C(=O)N[C@H](C(=O)O)[C@@H](C)CC)[C@@H](C)O)[C@@H](C)CC)[C@@H](C)O [Myr-EBIN, reference compound] (Myristoyl-FTEIPTI-OH) .
53

Specify measured remaining at 20 h for CC(C)(C)C[C@@H]1NC(=O)C[C@@H](O)CNC(=O)[C@@H]2C[C@@H]3CCCC[C@@H]3N2C(=O)[C@H](CC(C)(C)C)NC(=O)c2ccc(cc2)CNC(=O)C(C(C)(C)O)NC(=O)[C@@H](Cc2ccccc2)NC1=O (stereo partly drawn) [compound 109] (cyclo([4Amb][tBuAla][Oic][GABOB(3R)][tBuAla][dF][ξVal(3-OH)])) .
91

* * *

Experiment: Aggregation / solubility at 1 mM
Type: physicochemical
Conditions: summary calls it solubility at 1mM
Starred links: 1 amine or outer side, 2 acyl side, 3 side chain; linkers in the order of their positions; H or OH if unused. Positions of bridges follow the written chain, without caps; N, C: chain ends. Non-standard residues stand in square brackets, D forms with d. Residues, ends and D or L forms follow the SMILES beside them. ξ: configuration not given here. X2 = C[C@@](CCCCC=[*:3])(N[*:1])C(=O)[*:2]; Leu(4,5-dehydro) = C=C(C)C[C@H](N)C(=O)O; Oic = O=C(O)[C@@H]1C[C@@H]2CCCC[C@@H]2N1; d(tBuAla) = CC(C)(C)C[C@@H](N)C(=O)O; dVal(3-OH) = CC(C)(O)[C@@H](N)C(=O)O; cisHyp = O=C(O)[C@@H]1C[C@H](O)CN1; tBuAla = CC(C)(C)C[C@H](N)C(=O)O; R5 = C=CCCC[C@@](C)(N)C(=O)O; X1 = O=C(CC(O)CN[*:1])[*:2]; 3Amb = NCc1cccc(C(=O)O)c1; 4Amb = NCc1ccc(C(=O)O)cc1; ξP = O=C(O)C1CCCN1
observation_type: Aggregation at 1mM

Below are worked cases with known answers.
C=C(C)C[C@H](NC(=O)c1ccc(CNC(=O)CC(O)CNC(=O)[C@H](N)Cc2ccccc2)cc1)C(=O)N1[C@H](C(=O)NCC(O)CC(=O)N[C@@H](CC(C)(C)C)C(=O)O)C[C@@H]2CCCC[C@@H]21 (stereo partly shown) [compound 102] | weak signal
CC[C@H](C)[C@H](NC(=O)[C@@H](NC(=O)[C@@H]1CCCN1C(=O)[C@@H](NC(=O)[C@H](CCC(=O)O)NC(=O)[C@@H](NC(=O)[C@H](N)Cc1ccccc1)[C@@H](C)O)[C@@H](C)CC)[C@@H](C)O)C(=O)O [compound 004] (H-[dF]TEIPTI-OH) | 0.35
C=C(C)C[C@H](NC(=O)c1ccc(CNC(=O)CC(O)CN)cc1)C(=O)N1[C@H](C(=O)NCC(O)CC(=O)N[C@@H](CC(C)(C)C)C(=O)O)C[C@@H]2CCCC[C@@H]21 (stereo partly shown) [compound 104] | weak signal
CC[C@H](C)[C@H](NC(=O)[C@H](NC(=O)[C@@H]1C[C@H](O)CN1C(=O)[C@H](CC(C)(C)C)NC(=O)c1cccc(CNC(=O)[C@H](NC(=O)[C@@H](N)Cc2ccccc2)C(C)(C)O)c1)C(C)(C)O)C(=O)O [compound 042] (H-F[dVal(3-OH)][3Amb][tBuAla][cisHyp][dVal(3-OH)]I-OH) | weak signal
CC[C@@H](C)[C@H]1NC(=O)[C@H]([C@@H](C)O)NC(=O)C2CCCN2C(=O)[C@@H](CC(C)(C)C)NC(=O)[C@](C)(NC(=O)[C@@H](CCC(=O)O)NC(=O)[C@H](NC(=O)[C@H](N)Cc2ccccc2)[C@H](C)O)CCC/C=C\CCCC[C@@](C)(C(=O)N[C@@H](CCCNC(=N)N)C(=O)O)NC1=O (stereo partly shown) [compound 028] (H-[dF][dT][dE][R5][d(tBuAla)][ξP]T[dI][X2]R-OH; staple (Z) 4-9) | 1.39
C=C(C)C[C@H](NC(=O)CC(O)CNC(=O)[C@@H]1C[C@@H]2CCCC[C@@H]2N1C(=O)[C@H](CC(=C)C)NC(=O)c1ccc(CNC(=O)[C@H](NC(=O)[C@H](N)Cc2ccccc2)C(C)(C)O)cc1)C(=O)O (stereo partly shown) [compound 105] (H-[dF][dVal(3-OH)][4Amb][Leu(4,5-dehydro)][Oic][X1][Leu(4,5-dehydro)]-OH) | weak signal

Let us examine a further case.
Specify measured Aggregation at 1mM for C=C(C)C[C@H](NC(=O)[C@@H](NC(=O)[C@@H]1CCCN1C(=O)[C@H](CC(C)(C)C)NC(=O)[C@H](CCC(=O)O)NC(=O)[C@H](NC(=O)[C@H](N)Cc1ccccc1)C(C)(C)O)[C@@H](C)O)C(N)=O [compound 044] (H-[dF][dVal(3-OH)]E[tBuAla]PT[Leu(4,5-dehydro)]-NH2) .
weak signal
